Cited source: PubChem BioAssay AID179

Quick list: IC50 per entry.
tested on: CEM cells HIV-1 protection, formazan growth assay; test: NCI AIDS Antiviral Assay; details: measured here: growth of uninfected CEM cells
METRIC_NAME: IC50 (µM)

| COMPOUND | INEQUALITY_SYMBOL | ASSAY_RESULT |
| --- | --- | --- |
| O=C1N[C@@H]([C@H]2CC[C@H](Cl)CN2)C(=O)N[C@H]1[C@H]1CC[C@H](Cl)CN1 | = | 0.0141 |
| CCOC(=O)Cn1c(=O)cc(C)c2ccccc21 | > | 200 |
| O=C(OCc1ccccc1)N(Cc1ccccc1)S(=O)(=O)c1ccccc1 | > | 200 |
| Cn1ncc(NCCn2cnc3c2c(=O)n(C)c(=O)n3C)c(Cl)c1=O | > | 200 |
| COc1cc(OC)cc(-n2c(N)c(-c3nc4ccccc4n3C)c3ccc([N+](=O)[O-])cc3c2=O)c1 | > | 200 |
| C=C=CP(=O)(c1ccccc1)c1ccccc1 | = | 15.5 |
| CN/N=C(/CCN1CCCC1)CC(c1ccccc1)c1c(O)c2ccccc2oc1=O (stereo not given) | = | 74.1 |
| CC(=O)O[C@H]1[C@@H]2[C@@H](C[C@H](C)[C@H]3C=CC(=O)[C@@]31C)OC(=O)[C@@H]2C | = | 34.7 |
| CC(C)C(O)C(=O)C(O)C(C)C (stereo not given) | > | 1020 |
| CSc1c(C#N)c(=C(C#N)C#N)nc(C)/c1=C(\C)O | > | 100 |

====

test system: CEM cells HIV-1 protection, formazan growth assay; test: NCI AIDS Antiviral Assay; details: measured here: growth of uninfected CEM cells

| MOLECULE | IC50 |
| --- | --- |
| CCC1(c2ccccc2)Sc2ccccc2-n2cccc2C1=O (stereo not given) | 155 µM |
| CN(CCCNc1ccc2ncn3c4ccccc4c(=O)c1c23)CCCN1C(=O)c2cccc3cc([N+](=O)[O-])cc(c23)C1=O | 0.0316 µM |
| Cc1ccc2scc3c4ccccc4nc-3c2c1 | 0.479 µM |
| CCOCc1c(C)cc(C)c(C2C(C(=O)c3ccccc3)N3c4ccccc4C=CC3C2(C#N)C(=O)OCC)c1C (stereo not given) | 33.9 µM |
| O=CC(O)C(O)C(O)C(O)C(=O)NCCCCCCCCCCCCNC(=O)C(O)C(O)C(O)C(O)C=O (stereo not given) | > 200 µM |
| Cn1nnnc1SC(F)(F)c1nc2ccccc2o1 | > 200 µM |
| N#CC(N)=Nc1ccccc1 | 347 µM |
| CCCCOC(=O)C(=O)/C(=C\n1c(=S)[nH]c2cc(C)ccc21)C(=O)C=C(C)C | > 200 µM |
| c1ccc(N=C2c3ccsc3C(=Nc3ccccc3)c3ccsc32)cc1 | 2.51 µM |
| CC(C)(C)C1CCC2c3c([nH]c4ccccc34)C3C(=O)N(c4ccc(C(=O)O)cc4)C(=O)C3C2C1 (stereo not given) | 14.5 µM |

====

system: CEM cells HIV-1 protection, formazan growth assay; test: NCI AIDS Antiviral Assay
pEC50: −log10 of the molar value.
Quick list: pEC50 per entry.
METRIC_NAME: pEC50

| MOLECULE | ASSAY_RESULT |
| --- | --- |
| CCC[CH2][Sn]([CH2]CCC)([O]C(=O)C1CCC(=O)N1)[O]C(=O)C1CCC(=O)N1 (stereo not given) | < 4.41 |
| O=C1CSC(c2cccc([N+](=O)[O-])c2)N1c1ccc(-n2c(-c3ccccc3)nc3ccccc3c2=O)cc1 (stereo not given) | < 3.70 |
| COC(=O)[C@@H]1C(CO)[C@H](n2cc(C)c(=O)[nH]c2=O)C1(C)C (stereo not given in full) | < 3.36 |
| Cc1cn(C2CC3C(COC(C)(C)N3O)O2)c(=O)[nH]c1=O (stereo not given) | 5.11 |
| CC(=O)CC(=O)NC=O | < 3.58 |
| COc1ccc(I)c(CCC(CO)C2=CCC3(CC2)OCCO3)c1 (stereo not given) | < 4.79 |
| CC1(O)Oc2ccc3ccccc3c2C=C1C(N)=O (stereo not given) | < 3.70 |
| BrCCCCCOc1ccc(-c2c3ccccc3c(-c3ccc(OCCCCCBr)cc3)c3ccccc23)cc1 | < 4.00 |
| c1ccc(N=C(N2CCOCC2)N(CCN2CCOCC2)c2ccccc2)cc1 | < 3.70 |
| COC(=O)c1ccc(N2CCOS(=O)OCC2)cc1OC(=O)c1ccccc1 | < 3.70 |

====

tested on: CEM cells HIV-1 protection, formazan growth assay; assay: NCI AIDS Antiviral Assay
pEC50: −log10 of the molar value.
Quick list: pEC50 per entry.
METRIC_NAME: pEC50

| COMPOUND | ASSAY_RESULT |
| --- | --- |
| O=C(/C=C/c1ccccc1)c1c2ccccc2cc2ccccc12 | < 5.05 |
| N[C@H](C(=O)O)[C@H](Cl)CC(=O)O | < 3.61 |
| NC1=CN(Cc2ccccc2)C2=N/C(=C\c3ccccc3)C(=O)N12 | < 3.70 |
| CCCCCCCCCCN(CCCCCCCCCC)CC(=O)Nc1ccc(S(=O)(=O)c2ccc(NC(=O)CN(CCCCCCCCCC)CCCCCCCCCC)cc2)cc1 | < 4.30 |
| CC1(C)CCCC2(C)[C@@H]1CC[C@@]13CC(=O)[C@@](C)(CC[C@@H]21)C3 (some centres undefined) | < 4.04 |
| O=C(O)C1CSCN1C(=O)c1ccccc1SSc1ccccc1C(=O)N1CSCC1C(=O)O (centres undefined) | 4.07 |
| O=C1NC(Cc2ccc(O)c(O)c2)C(=O)N2CCCC12 (centres undefined) | < 3.70 |
| CC(=O)OCC1OC(OCCCCCCO)C(OC(C)=O)C(OC(C)=O)C1OC(C)=O (centres undefined) | < 3.70 |
| CC(=O)OC1CC[C@@]2(C)C(=CC[C@@H]3[C@@H]2CC[C@]2(C)Nc4c(cnn4-c4ccc(F)cc4)C[C@@H]32)C1 (some centres undefined) | < 5.00 |
| CC12SC3(C)SC(C)(S1)SC(C)(S2)S3 | < 4.35 |
| CC1Oc2c(c(=O)oc3ccccc23)[C@@]1(C)CC1C[C@H](C)C(=O)O1 (some centres undefined) | < 3.70 |
| CC1OC(OC2C(O)COC(OC3C(C)OC(OC4C(OC(=O)[C@]56CCC(C)(C)C[C@@H]5C5=CCC7[C@@]8(C)C[C@H](O)[C@H](OC9OC(CO)C(O)C(OC%10OC(CO)C(O)C(O)C%10O)C9O)[C@@](C)(CO)[C@@H]8CC[C@@]7(C)[C@]5(C)CC6)OCC(O)C4O)C(O)C3O)C2O)C(O)C(O)C1O (some centres undefined) | < 4.23 |
| C1CCC(N=C2N(C3CCCCC3)C(=NC3CCCCC3)N2C2CCCCC2)CC1 | < 5.04 |
| CNC(C)(C)C(SSSC(c1ccc(Cl)cc1)C(C)(C)NC)c1ccc(Cl)cc1 (centres undefined) | < 3.70 |
| N#CCCN(CCC#N)c1ccc(/C=C2\CC(O)(c3ccccc3)NC2=O)cc1 (centres undefined) | < 5.15 |
| CN(C(=O)C12C3(C(=O)C(C)(C)C)C4C5(C#N)C3C1(C(=O)C(C)(C)C)C5C42C(=O)C(C)(C)C)C(C)(C)C (centres undefined) | < 4.28 |
| C=C1C(=O)C23[C@H](O)C1CC[C@H]2[C@]12COC3(O)[C@@H](O)[C@@H]1C(C)(C)CC[C@@H]2O | < 3.46 |
| NCC(O)c1ccc(Nc2ccnc3cc(Cl)ccc23)cc1 (centres undefined) | < 4.03 |
| O=C1C(=O)c2ccccc2C(O)=C1C1CCCCC1 | < 3.58 |

====

tested on: CEM cells HIV-1 protection, formazan growth assay; assay: NCI AIDS Antiviral Assay;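 active = compounds giving half or more protection of infected cells from virus-caused growth loss, again on retest; inactive = the rest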
Outcome codes: active, inactive

| COMPOUND | TARGET_OF_ASSAY | ANSWER_LABEL |
| --- | --- | --- |
| CC(C)N([PH2+]N(C(C)C)C(C)C)C(C)C.[C-]#[O+].[C-]#[O+].[C-]#[O+].[C-]#[O+].[C-]#[O+].[Mo] | CEM cells HIV-1 protection, formazan growth assay | inactive |
| Nc1ncnc2oc(-c3ccccc3)nc12 | CEM cells HIV-1 protection, formazan growth assay | inactive |
| CC(=O)N/N=C(\C=C\c1ccccc1)c1ccccc1OC(C)=O | CEM cells HIV-1 protection, formazan growth assay | inactive |
| CCCc1cc(=O)oc2c3c(c4c(c12)OC(C)(C)C=C4)O[C@@H](C)[C@H](C)[C@H]3O | CEM cells HIV-1 protection, formazan growth assay | active |
| CC(C)(CN1CCCCC1)C(/C=C/c1ccc(Cl)c(Cl)c1)=N\NC(=O)N/N=C(/C=C/c1ccc(Cl)c(Cl)c1)C(C)(C)CN1CCCCC1 | CEM cells HIV-1 protection, formazan growth assay | inactive |
| CN1CN(c2ccccc2)C2(CCN(CCCCCCF)CC2)C1=O | CEM cells HIV-1 protection, formazan growth assay | inactive |
| N#C/C(=C\c1c(Cl)cccc1Cl)c1ccccc1 | CEM cells HIV-1 protection, formazan growth assay | inactive |
| CCOP(=O)(CC(C)P(=O)(OCC)OCC)OCC.C[CH2][Sn]([Cl])([Cl])[CH2]C (stereo not given) | CEM cells HIV-1 protection, formazan growth assay | inactive |
| CCOC(=O)/C=C/c1cccc(C#N)c1 | CEM cells HIV-1 protection, formazan growth assay | inactive |
| COC(=O)C1Cc2c(C)cccc2C1=O (stereo not given) | CEM cells HIV-1 protection, formazan growth assay | inactive |
